tgt: Nuclear receptor ROR-gamma (Homo sapiens, UniProt P51449)
test-name: Agonist activity at APC-labelled RORgammat (unknown origin) assessed as biotinylated SRC recruitment measured after 1 hr by dual FRET assay
measured-endpoint: EC50 (nM)
Express your answer in nM, writing the number without its unit.

The examples below pair each entry with its known result.
>>> recorded_number("CC(C)Oc1ccc2c(c1)N(CCc1ccc(C(=O)NCc3ccc(S(C)(=O)=O)cn3)cc1)CCO2")
7.5
>>> recorded_number("CCS(=O)(=O)c1ccc(CC(=O)Nc2ccc(CCN3CCCc4ccc(F)cc43)cc2)cc1")
11.5
>>> recorded_number("CS(=O)(=O)c1ccc(CC(=O)Nc2ccc(CCN3CCOc4ccc(C(F)(C(F)(F)F)C(F)(F)F)cc43)cc2)cc1")
46

Q: Item CCS(=O)(=O)c1ccc(CC(=O)Nc2ccc(CCN3CCCc4ccc(CC(C)C)cc43)c(F)c2)cc1 : provide EC50
Result: 13

Q: Item CCS(=O)(=O)c1ccc(CNC(=O)c2ccc(CCN3CCOc4ccc(CC(C)C)cc43)cc2)nc1 : provide EC50
Result: 7.1

---

tgt: UniProt:P51449
test-name: Agonist activity at APC-labelled RORgammat (unknown origin) assessed as biotinylated SRC recruitment measured after 1 hr by dual FRET assay
Reported EC50 values follow for various compounds
Express your answer in nM, writing the number without its unit.

The examples below pair each entry with its known result.
>>> recorded_number("CCS(=O)(=O)c1ccc(CNC(=O)Nc2ccc(CCN3CCCc4ccc(CC(C)C)cc43)cc2)cc1")
25.9
>>> recorded_number("CCS(=O)(=O)c1ccc(CC(=O)Nc2ccc(CCN3CCCc4ccc(C)cc43)cc2)cc1")
16.7

Q: Item CCS(=O)(=O)c1ccc(CNC(=O)c2ccc(CCN3CCCc4ccc(OC5CCC5)cc43)cc2)nc1 : provide EC50
Result: 12.2

Q: Item CCS(=O)(=O)c1ccc(CNC(=O)c2ccc(CCN3CCOc4ccc(OC(C)C)cc43)cc2)nc1 : provide EC50
Result: 4.6

Q: Item CCS(=O)(=O)c1ccc(CC(=O)Nc2ccc(CCN3CCCc4ccc(OC5CCC5)cc43)cc2)cc1 : provide EC50
Result: 15.6

---

tgt: Nuclear receptor ROR-gamma (Homo sapiens)
Sequence (P51449 whole entry): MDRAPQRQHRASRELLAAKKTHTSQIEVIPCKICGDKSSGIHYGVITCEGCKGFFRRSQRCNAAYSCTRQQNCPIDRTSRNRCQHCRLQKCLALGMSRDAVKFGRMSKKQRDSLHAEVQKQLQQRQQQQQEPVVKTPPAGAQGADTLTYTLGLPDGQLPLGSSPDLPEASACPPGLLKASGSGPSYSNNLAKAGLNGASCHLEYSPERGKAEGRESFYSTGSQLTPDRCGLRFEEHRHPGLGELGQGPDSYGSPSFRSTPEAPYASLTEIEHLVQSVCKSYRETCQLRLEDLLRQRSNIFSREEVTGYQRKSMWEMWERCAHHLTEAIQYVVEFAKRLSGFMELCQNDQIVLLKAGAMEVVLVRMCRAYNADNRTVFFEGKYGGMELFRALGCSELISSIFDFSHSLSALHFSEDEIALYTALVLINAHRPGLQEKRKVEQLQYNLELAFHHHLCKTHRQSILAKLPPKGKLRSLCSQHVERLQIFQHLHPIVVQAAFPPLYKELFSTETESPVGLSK
test-name: Agonist activity at APC-labelled RORgammat (unknown origin) assessed as biotinylated SRC recruitment measured after 1 hr by dual FRET assay
measured-endpoint: EC50 (nM)
Express your answer in nM, writing the number without its unit.

>>> recorded_number("CCS(=O)(=O)c1ccc(CC(=O)Nc2ccc(CCN3CCCc4ccc(C(C)C)cc43)cc2)cc1")
22.1
>>> recorded_number("CC(Oc1ccc2c(c1)N(CCc1ccc(NC(=O)Cc3ccc(S(C)(=O)=O)cc3)cc1)CCO2)C(F)(F)F (stereo not drawn)")
4.4
>>> recorded_number("CCS(=O)(=O)c1ccc(CC(=O)Nc2ccc(CCN3CCCc4ccc(CC5CC5)cc43)cc2)cc1")
12.8

Q: Item CCS(=O)(=O)c1ccc(C(CO)NC(=O)c2ccc(CCN3CCCc4ccc(CC(C)C)cc43)cc2)cc1 (stereo not drawn) : provide EC50
Result: 20.9

Q: Item CCS(=O)(=O)c1ccc(CNC(=O)c2ccc(CCN3CCCc4ccc(OC(C)C)cc43)cc2)nc1 : provide EC50
Result: 8.9

Q: Item CC(C)Oc1ccc2c(c1)N(CCc1ccc(NC(=O)Cc3ccc(S(C)(=O)=O)cc3)cc1)CCO2 : provide EC50
Result: 4.4

Q: Item CCS(=O)(=O)c1ccc(CNC(=O)c2ccc(CCN3CCCc4ccc(OC5COC5)cc43)cc2)nc1 : provide EC50
Result: 7.7

Q: Item CCS(=O)(=O)c1ccc(CNC(=O)c2ccc(CCN3CCCc4ccc(CC(C)C)cc43)cc2)nc1 : provide EC50
Result: 8.9
